Every entry's value here was drawn from patent US8034812B2.

Measured inhibition at 1 µM, listed per entry for reference.
molecular target: VEGFR2 intracellular domain protein (Homo sapiens, UniProt P35968); construct: made in house; host or cells: SF-21 insect cells, recombinant baculovirus BAC-VEGFR2; assay: Determination of vascular endothelial growth factor receptor 2 (VEGFR2) kinase inhibitory activity (AlphaScreen); type: biochemical; conditions: read-out: VEGFR2 kinase inhibitory rate
Sequence (P35968 786-1356 limits assumed): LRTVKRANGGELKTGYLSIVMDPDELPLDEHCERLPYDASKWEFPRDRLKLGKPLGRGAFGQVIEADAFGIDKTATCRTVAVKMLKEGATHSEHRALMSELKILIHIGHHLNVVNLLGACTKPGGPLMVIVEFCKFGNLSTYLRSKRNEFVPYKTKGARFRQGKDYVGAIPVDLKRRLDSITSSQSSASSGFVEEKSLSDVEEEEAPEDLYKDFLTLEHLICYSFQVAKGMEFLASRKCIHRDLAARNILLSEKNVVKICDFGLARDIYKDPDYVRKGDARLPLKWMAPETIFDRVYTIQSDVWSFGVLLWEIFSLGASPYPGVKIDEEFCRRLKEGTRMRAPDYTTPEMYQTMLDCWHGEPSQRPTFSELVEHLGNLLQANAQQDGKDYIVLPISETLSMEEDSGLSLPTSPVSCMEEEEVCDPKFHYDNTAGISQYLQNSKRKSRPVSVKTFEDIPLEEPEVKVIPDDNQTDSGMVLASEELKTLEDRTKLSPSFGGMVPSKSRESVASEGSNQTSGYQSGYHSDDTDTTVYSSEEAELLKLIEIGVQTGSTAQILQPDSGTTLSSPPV

As a guide, the following entries are already answered.
molecule	subject.of.test	inhibition at 1 µM
Cc1cc(C(=O)Nc2cc(Oc3ccc4nc(NC(=O)C5CC5)cn4n3)ccc2F)n(C)n1 [Example 148]	VEGFR2 intracellular domain protein (Homo sapiens, UniProt P35968)	≥ 90%
CCn1nccc1C(=O)Nc1cc(Oc2ccc3nc(NC(=O)C4CC4)cn3n2)ccc1F [Example 174]	VEGFR2 intracellular domain protein (Homo sapiens, UniProt P35968)	≥ 90%

Proceed to the following item.
For the record Cc1cc(C(=O)Nc2cccc(Nc3ccc4nc(NC(=O)C5CC5)cn4n3)c2)n(C)n1 [Example 317] , what value of inhibition at 1 µM is listed for VEGFR2 intracellular domain protein (Homo sapiens, UniProt P35968)? ≥ 90%
